Values from patent US20260132208A1

Target: human CCR8 (human, UniProt P51685 1-355)
Assay: cell-based or functional assay
experimental.readout: residual hCCL1 (100 nM) Gi2 response, protocol #2, mAb 0.08 µg/mL (%)
Please give a number only; it is taken to be in %.

In plain terms, anti-CCR8 mAb 1-16 (antibody, V domains shown, Murine hybridoma mAb) VH: EVQLQQSGPELVKPGASVKISCKASVYSFTGSYMHWVKQSHVKSLEWIGRINPYNGATSYNQNFKDKASLTVDKSSSTAYMELHSLTSEDSAVYYCATTLLRLLDYWGQGTTLTVSS VL: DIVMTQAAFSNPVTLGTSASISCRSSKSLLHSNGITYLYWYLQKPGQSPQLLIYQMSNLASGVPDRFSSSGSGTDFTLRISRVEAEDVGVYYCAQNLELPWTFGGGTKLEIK has a documented residual hCCL1 (100 nM) Gi2 response, protocol #2, mAb 0.08 µg/mL of 97
